assay: Displacement of [3H]-N-methylspiperone from dopamine D2-like receptor in pig striatal tissue homogenates after 30 mins by scintillation counting; assay type: tissue-based, Sus scrofa, Striatum
Counter-ions that a name gives are not always drawn.
Recorded Metric: log10 Ki (log10 of the value in µM)

| Compound | log10 Ki |
| --- | --- |
| Oc1cc2c(cc1O)[C@H]1c3ccccc3SC[C@@H]1NCC2 (racemic) | 1.45 |
| Oc1cc2c(cc1O)[C@@H]1c3ccccc3CC[C@@H]1NCC2 (racemic) | 1.94 |
| Oc1cc2c(cc1O)[C@H]1c3ccccc3CN[C@@H]1CC2 (racemic) [DIHYDREXIDINE] | -0.49 |
| Oc1cc2c(cc1O)[C@@H](c1ccccc1)CNCC2 | 0.37 |
| Oc1cc2c(cc1O)[C@H]1c3ccccc3CC[C@@H]1NCC2 (racemic) | 0.93 |
| Oc1cc2c(cc1O)[C@H]1c3ccccc3OC[C@@H]1NCC2 (racemic) | 1.65 |
| CN1CCc2cc(Cl)c(O)cc2[C@H]2c3ccccc3CC[C@@H]21 [ECOPIPAM HYDROCHLORIDE] | 0.30 |
